Target: human high molecular weight urokinase (Homo sapiens)
Counter-ions that a name gives are not always drawn.
measured quantity: IC50 (nM)
Note: unit nM is implicit; provide only the numeric part.

Provide IC50, recorded with human high molecular weight urokinase (Homo sapiens), of CCCC=C1CCCc2sc(C(=N)N)cc21 [Compound A, hydrochloride]
470
